Kindly supply the reported pEC50 values for the records listed here.
# Tested on: newly transformed schistosomula (NTS)
# Experiment Notes: In vitro screening of newly transformed schistosomula
# Assay type: cell-based, Schistosoma mansoni
# Condition Set: Schistosoma mansoni, 72 h, read-out: NTS EC50
Numbers only, as −log10 of the molar value.

Here's what some known entries look like.
# Compound, pEC50
records = [
    ("N=C(N/N=C/c1cnc2ccccc2c1)N/N=C/c1cnc2ccccc2c1 [Compound 63]", 6.19),
    ("C#CCOc1ccc(/C=N/NC(=N)N/N=C/c2ccc(C(=O)c3ccccc3)cc2)cc1 [Compound 86]", 5.35),
    ("N=C(N/N=C/c1ccc(Oc2ccc(Cl)cc2)cc1)N/N=C/c1ccc(Oc2ccc(Cl)cc2)cc1 [Compound 59]", 5.57),
    ("N=C(N/N=C/c1cccc([N+](=O)[O-])c1)N/N=C/c1cccc([N+](=O)[O-])c1 [Compound 49]", 5.48),
    ("N=C(N/N=C/c1ccc2ccccc2n1)N/N=C/c1ccc2ccccc2n1 [Compound 62]", 5.60),
]

Please give pEC50, item by item, for the list that follows.
1. N=C(NN=Cc1ccc(N2CCOCC2)cc1)NN=Cc1ccc(N2CCOCC2)cc1 [Compound 33]
2. N#Cc1cccc(CC=NNC(=N)NN=CCc2cccc(C#N)c2)c1 [Compound 23]
3. N=C(N/N=C/c1ccc(Oc2ccc(F)cc2)cc1)N/N=C/c1ccc(Oc2ccc(F)cc2)cc1 [Compound 58]

*A*
5.61
5.95
5.35
